Source listed as PubChem BioAssay.

# Measured target: Luciferin 4-monooxygenase (Photinus pyralis) (UniProt P08659)
# Sequence (P08659 whole entry, looked up): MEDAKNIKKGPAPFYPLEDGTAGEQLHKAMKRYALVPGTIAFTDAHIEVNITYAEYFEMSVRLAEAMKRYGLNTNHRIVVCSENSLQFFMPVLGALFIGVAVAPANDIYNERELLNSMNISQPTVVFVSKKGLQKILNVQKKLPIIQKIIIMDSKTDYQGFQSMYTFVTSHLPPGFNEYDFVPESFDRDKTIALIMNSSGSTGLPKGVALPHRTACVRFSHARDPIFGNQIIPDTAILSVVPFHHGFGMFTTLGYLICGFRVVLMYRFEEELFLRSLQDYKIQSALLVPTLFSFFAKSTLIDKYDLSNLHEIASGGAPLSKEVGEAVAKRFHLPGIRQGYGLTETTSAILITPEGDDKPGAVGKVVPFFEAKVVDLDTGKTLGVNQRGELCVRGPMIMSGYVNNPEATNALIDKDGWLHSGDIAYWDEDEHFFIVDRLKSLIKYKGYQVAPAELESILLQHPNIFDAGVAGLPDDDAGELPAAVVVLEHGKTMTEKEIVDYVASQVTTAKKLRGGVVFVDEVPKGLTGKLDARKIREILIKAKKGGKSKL
# Method: inhibition of purified Photinus pyralis luciferase – biochemical, luminescence, purified enzyme, 2006 set, primary screen (AID 1141);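 note: cell-free assay with purified firefly luciferase at 100 ng per well in PBS; test concentration not given here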
# Experimental setup: purified firefly luciferase, SteadyGlo luminescence, 30 min; higher = more signal, called active from +8 up or from −8 down
Measured endpoint: z-score
Numbers only.

Below: 3 compounds and their reported z-score.
CN1C(=O)C2C(C3CC3)C=C3CN(Cc4cccc(Cl)c4)[C@@H]([C@@H](O)Cc4ccccc4)C3C2C1=O (some centres undefined) | -0.785
COC(=O)C1=CC(CCCO)=CC(c2cccs2)N(Cc2cc3c(cc2Br)OCO3)C=C1C(=O)OC (centres undefined) | -1.39
COCCOC(=O)N1C(=O)[C@@]2(c3ccccc31)[C@H](C(=O)N1CCN(c3ncccn3)CC1)[C@H]1C(=O)O[C@H](c3ccccc3)[C@H](c3ccccc3)N1[C@@H]2c1ccccc1OCCO | -0.0896

Requested read-out: z-score. Entry: "CCCC[C@H]1C[C@@H]1[C@@H]1N(C(C)=O)[C@H](c2cccc(OC)c2)CC12CC2"
2.15

* * *

What composite z-score was measured for each of the following?
# System: Plasmodium falciparum Sir2 (PF13_0152, Sir2A)
# Method: Plasmodium falciparum Sir2A binding compounds – biochemical, small-molecule microarray, 635 nm fluorescence, primary screen (AID 1098);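 note: score merges spot fluorescence intensity with its signal-to-noise ratio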
# Experimental setup: fluorescence 635 nm, higher = more signal
Numbers only.

Before answering, review these 6 worked examples.
COc1ccc(C(=O)Nc2ccc3c(c2)[C@@]2(O[C@H](CCO)[C@@H]([Si](C)(C)c4ccc(OC)cc4)[C@@H]2C)C(=O)N3Cc2ccccc2)cc1 | 0.578
CN(C)CCCCNC(=O)[C@H]1C[C@H]2C(=O)NCC(=O)N2[C@H]1c1ccc(O)cc1 | 0.978
COCCOC(=O)N1C(=O)[C@@]2(c3cc(C#CCNC(N)=O)ccc31)[C@H](C(=O)Nc1nc3ccccc3s1)[C@H]1C(=O)O[C@H](c3ccccc3)[C@H](c3ccccc3)N1[C@@H]2c1ccccc1OCCO | 0.678
CCCC=C(CCC)[C@@H](NC(=O)c1ccc(C(F)(F)F)cc1)c1ccc(C(F)(F)F)cc1 | 0.654
[N-]=[N+]=Nc1ccccc1C[C@@]1(C(=O)NCC(O)CO)N=C(c2ccc(OCCCO)cc2)O[C@@H]1c1ccccc1 (some centres not stated) | 0.973
CCOC(=O)C[C@H]1[C@H](OC(=O)c2cc3ccccc3oc2=O)[C@@H](NC(=O)CC(C)C)c2cc(OCCCO)ccc2N1C(=O)Cc1ccc(OC)cc1 | 0.621

Turning now to a further compound:
Please look up its composite z-score: "COC(=O)[C@@]1(Cc2ccc(F)cc2)[C@H]2c3cc(C(=O)N4CCCC4)n(Cc4ccccn4)c3C[C@H]2CN1C(=O)c1ccccc1"
0.919

* * *

Consider the following compounds; for each one, report its composite z-score.
# Measured target: Epidermal growth factor receptor (Homo sapiens)
# Method: compounds binding epidermal growth factor receptor – biochemical, small-molecule microarray, 635 nm fluorescence, primary screen (AID 1104);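 note: score merges 667 nm emission intensity with spot signal to noise over triplicate slides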
# Experimental setup: EGFR binding, higher = more signal

State recorded composite z-score for all listed compounds.
1. O=C(NCc1ccccc1)[C@@H]1c2ccccc2C(=O)N(Cc2cc(C(F)(F)F)cc(C(F)(F)F)c2)[C@H]1c1ccc(CO)cc1
2. C=CCN1C(=O)[C@@]2(O[C@@H](CCn3cc([C@H](O)c4ccccc4)nn3)[C@H]([Si](C)(C)c3ccc(OC)cc3)[C@H]2C)c2cc(N3C(=O)c4cccc5cccc3c45)ccc21

0.171
-1.04
